Source listed as PubChem BioAssay AID180.

Tested on: BDF1 mice, Adenocarcinoma 755 s.c., tumor weight T/C
Assay Protocol: NCI In Vivo Anticancer Drug Screen. Data for tumor model Adenocarcinoma 755 (subcutaneous) in B6D2F1 (BDF1) mice
Stated Conditions: endpoint: mean tumor weight; dose: 12.5 mg/kg/injection; schedule: Q01DX011 (ip); vehicle: saline; higher = larger tumour
Measurement Type: T/C

{"Molecule": "[OH-].[OH-].[Pd+2].c1ccc(CSc2ncnc3nc[nH]c23)cc1.c1ccc(CSc2ncnc3nc[nH]c23)cc1.c1ccc(CSc2ncnc3nc[nH]c23)cc1.c1ccc(CSc2ncnc3nc[nH]c23)cc1", "T/C": "16 % of control"}

*Q* Could you share which T/C value was measured for CC1CN1P(=O)(N1CCCC1)N1CC1C (stereo not given) ?
*A* 58 % of control

*Q* Could you share which T/C value was measured for C=CCSc1ncnc2c1ncn2C1OC(CO)C(O)C1O (stereo not given) ?
*A* 42 % of control

*Q* Could you share which T/C value was measured for `c1nc([N+]23CCC(CC2)CC3)c2[nH]cnc2n1` ?
*A* 101 % of control

*Q* Could you share which T/C value was measured for CCCCCCOP(=O)(N1CC1C)N1CC1C (stereo not given) ?
*A* 100 % of control

====

// reported T/C for each item listed
System: BDF1 mice, Adenocarcinoma 755 s.c., tumor weight T/C
Assay Protocol: NCI In Vivo Anticancer Drug Screen. Data for tumor model Adenocarcinoma 755 (subcutaneous) in B6D2F1 (BDF1) mice
Stated Conditions: endpoint: mean tumor weight; dose: 50.0 mg/kg/injection; schedule: Q01DX011 (ip); vehicle: methylcellulose (MC); higher = larger tumour

Worked cases, T/C given:
{"Molecule": "CN(Cc1ccccc1)c1ncnc2[nH]ncc12", "T/C": "10 % of control"}
{"Molecule": "CC(=O)Nc1c(Cl)c(Cl)c2c(c1Cl)C(=O)c1cc(Cl)ccc1-2", "T/C": "57 % of control"}
{"Molecule": "CCCCn1cnc2c(SCc3ccc(Br)cc3)nc(N)nc21", "T/C": "82 % of control"}
{"Molecule": "O=c1[nH]c(=O)n(C2CC(O)C(CO)O2)cc1F (stereo not drawn)", "T/C": "25 % of control"}
{"Molecule": "C[C@@H]1C[C@@H]([C@H](O)CC2CC(=O)NC(=O)C2)C(=O)[C@@H](C)C1", "T/C": "13 % of control"}

*Q* Could you share which T/C value was measured for `CCOc1ccc2nc(S(N)(=O)=O)sc2c1` ?
*A* 60 % of control

*Q* Could you share which T/C value was measured for `CS(=O)(=O)OCCCCOS(C)(=O)=O` ?
*A* 30 % of control

====

// reported T/C for each item listed
Test system: BDF1 mice, Adenocarcinoma 755 s.c., tumor weight T/C
Assay Protocol: NCI In Vivo Anticancer Drug Screen. Data for tumor model Adenocarcinoma 755 (subcutaneous) in B6D2F1 (BDF1) mice
Stated Conditions: endpoint: mean tumor weight; dose: 50.0 mg/kg/injection; schedule: Q01DX011 (ip); vehicle: carboxymethylcellulose (CMC); higher = larger tumour
Experimental: The antitumor activity of compounds was measured in mice bearing transplantable tumors. Survival or tumor size were measured and the results are expressed as the measurement made in the treated group (T) divided by the measurement made in the vehicle treated control group (C). The tumor model used in this assay is Adenocarcinoma 755 (subcutaneous) in B6D2F1 (BDF1) mice

{"Molecule": "CC[N+](C)(C)c1ncnc2nc[nH]c12", "T/C": "22 % of control"}
{"Molecule": "OCC1CCC(n2cnc3c(=S)nc[nH]c32)C1 (stereo not given)", "T/C": "89 % of control"}
{"Molecule": "CN(C)[C@@H]1C(=O)C(C(=O)NCNc2nc(=S)c3[nH]cnc3[nH]2)=C(O)[C@@]2(O)C(=O)C3=C(O)c4c(O)cccc4[C@@](C)(O)[C@H]3C[C@@H]12", "T/C": "1 % of control"}

*Q* Could you share which T/C value was measured for Cc1cc2c(cc1C)NC(C)CC(=O)N2 (stereo not given) ?
*A* 89 % of control

*Q* Could you share which T/C value was measured for `Nc1ccc2ccccc2c1N=Nc1ccccc1` ?
*A* 27 % of control

*Q* Could you share which T/C value was measured for `COC(=O)C1(N)CCCC1` ?
*A* 11 % of control

*Q* Could you share which T/C value was measured for `CSc1nc(Cl)c(Br)c(Sc2nc(N)nc3nc[nH]c23)n1` ?
*A* 5 % of control

*Q* Could you share which T/C value was measured for `CCOc1ccccc1C(=O)Nc1ccc(Br)cc1` ?
*A* 40 % of control

*Q* Could you share which T/C value was measured for `C[C@H]1C(=O)O[C@@H]2CCN3CC=C(COC(=O)[C@](C)(O)[C@@]1(C)O)[C@H]23` ?
*A* 61 % of control

*Q* Could you share which T/C value was measured for `CCCCn1cnc2c(SC3CCCC3)ncnc21` ?
*A* 13 % of control

====

Tested on: BDF1 mice, Adenocarcinoma 755 s.c., tumor weight T/C
Assay Protocol: NCI In Vivo Anticancer Drug Screen. Data for tumor model Adenocarcinoma 755 (subcutaneous) in B6D2F1 (BDF1) mice
Stated Conditions: endpoint: mean tumor weight; dose: 30.0 mg/kg/injection; schedule: Q01DX011 (ip); vehicle: carboxymethylcellulose (CMC); higher = larger tumour
// reported T/C for each item listed

Worked cases, T/C given:
{"Compound": "CC(=O)OCC1OC(n2cnc3c(=O)[nH]cnc32)C(OC(C)=O)C1OC(C)=O (stereo not drawn)", "Result": "55 % of control"}
{"Compound": "Cc1ccc(/C=N/Nc2nc3c([nH]2)c(=O)n(C)c(=O)n3C)cc1", "Result": "95 % of control"}
{"Compound": "O=c1[nH]cnc2c1ncn2C1CCCO1 (stereo not drawn)", "Result": "80 % of control"}

*Q* Could you share which T/C value was measured for CC(=O)OCC1OC(n2cnc3c(Cl)nc(Cl)nc32)C(OC(C)=O)C1OC(C)=O (stereo not drawn) ?
*A* 85 % of control

*Q* Could you share which T/C value was measured for `Cc1nc(Cl)c(C#N)c(C(F)(F)F)c1[N+](=O)[O-]` ?
*A* 59 % of control

====

Tested on: BDF1 mice, Adenocarcinoma 755 s.c., tumor weight T/C
Assay Protocol: NCI In Vivo Anticancer Drug Screen. Data for tumor model Adenocarcinoma 755 (subcutaneous) in B6D2F1 (BDF1) mice
Stated Conditions: endpoint: mean tumor weight; dose: 100.0 mg/kg/injection; schedule: Q01DX011 (ip); vehicle: saline; higher = larger tumour
// reported T/C for each item listed

Worked cases, T/C given:
{"Compound": "Oc1ccc2ccccc2c1N=Nc1ccc(F)cc1", "Result": "12 % of control"}
{"Compound": "O=c1[nH]cc(C(F)(F)F)c(=O)[nH]1", "Result": "65 % of control"}
{"Compound": "Cc1ccccc1CNc1ncnc2[nH]ncc12", "Result": "4 % of control"}
{"Compound": "OCCNc1ncnc2c1ncn2C1CCCO1 (stereo unspecified)", "Result": "96 % of control"}
{"Compound": "Oc1ccc2ccccc2c1N=Nc1ccccc1", "Result": "55 % of control"}

*Q* Item: `Cc1ncc(CO)c(C)c1O` Test system: BDF1 mice, Adenocarcinoma 755 s.c., tumor weight T/C Read-out: T/C Value: ?
*A* 22 % of control

====

// reported T/C for each item listed
Test system: BDF1 mice, Adenocarcinoma 755 s.c., tumor weight T/C
Assay Protocol: NCI In Vivo Anticancer Drug Screen. Data for tumor model Adenocarcinoma 755 (subcutaneous) in B6D2F1 (BDF1) mice
Stated Conditions: endpoint: mean tumor weight; dose: 12.0 mg/kg/injection; schedule: Q01DX011 (ip); vehicle: carboxymethylcellulose (CMC); higher = larger tumour

{"Compound": "CCOc1ccccc1C(=O)Nc1ccc(Br)cc1", "T/C": "66 % of control"}

*Q* Could you share which T/C value was measured for `O=S(=O)(NCc1ccccn1)c1ncnc2nc[nH]c12` ?
*A* 119 % of control

*Q* Could you share which T/C value was measured for CC(C)C(=O)OCC1OC(n2cnc3c(=S)nc(N)[nH]c32)C(OC(=O)C(C)C)C1OC(=O)C(C)C (configuration not stated) ?
*A* 18 % of control

*Q* Could you share which T/C value was measured for `c1ccc(CSc2ncnc3nc[nH]c23)nc1` ?
*A* 7 % of control

*Q* Could you share which T/C value was measured for `CCn1cnc2c(=S)nc[nH]c21` ?
*A* 3 % of control

*Q* Could you share which T/C value was measured for `Cc1ccc(N2CCN(CCCN3CCN(c4ccccc4Cl)CC3)CC2)cc1` ?
*A* 64 % of control

*Q* Could you share which T/C value was measured for C=CC(CN1CC1)OC(C)=O (configuration not stated) ?
*A* 3 % of control

====

Test system: BDF1 mice, Adenocarcinoma 755 s.c., tumor weight T/C
Assay Protocol: NCI In Vivo Anticancer Drug Screen. Data for tumor model Adenocarcinoma 755 (subcutaneous) in B6D2F1 (BDF1) mice
Stated Conditions: endpoint: mean tumor weight; dose: 50.0 mg/kg/injection; schedule: Q01DX011 (ip); vehicle: saline; higher = larger tumour
Measurement Type: T/C

Worked cases, T/C given:
{"Compound": "CN(C)[C@@H]1C(=O)C(C(=O)NCNC2(C(=O)O)CCCC2)=C(O)[C@@]2(O)C(=O)C3=C(O)c4c(O)cccc4[C@@](C)(O)[C@H]3C[C@@H]12", "T/C": "77 % of control"}
{"Compound": "CCCCn1cnc2c(SC)ncnc21", "T/C": "10 % of control"}
{"Compound": "CCC1OCCN1C(C)C (stereo not given)", "T/C": "29 % of control"}
{"Compound": "O=[N+]([O-])O.[Ga]", "T/C": "7 % of control"}

Kindly consider the entry below.
*Q* Item: OCCNc1ncnc2c1ncn2C1CCCO1 (stereo not given) Test system: BDF1 mice, Adenocarcinoma 755 s.c., tumor weight T/C Read-out: T/C Value: ?
*A* 174 % of control
